Test system: Plasmodium falciparum
Assay: GSK_TCMDC: Inhibition of Plasmodium falciparum Dd2 in whole red blood cells, using parasite LDH activity as an index of growth. Test compounds present at 2uM
Type: functional
Listed here are molecules together with their documented Inhibition.

# molecule, Inhibition / %
rows = [
    ("OC(c1cccc2ccccc12)C1CN(CCc2ccccc2)CCC1(O)c1ccccc1 (centres undefined)", 100),
    ("CN(C)CC1CCCN1Cc1ccccc1-c1cnn(C)c(=O)c1Oc1ccc(F)cc1.O=C(O)C(F)(F)F (centres undefined)", 19),
    ("CC(C)(CN)c1nc(-c2ccc(Cl)c(O)c2)c(-c2ccncc2)[nH]1.Cl", 98),
    ("O=C(Nc1ccc(-c2csc3nccn23)cc1)c1ccc(Cl)cc1", 50),
    ("CCc1cn2c3c(cc(C(=O)N[C@@H](Cc4ccccc4)[C@H](O)CNC(C)(C)c4cccc(OC)c4)cc13)N(C)S(=O)(=O)C2.O=CO", 99),
    ("Fc1cccc(Nc2nc(NCc3ccc(Cl)c(Cl)c3)nc(Nc3cccc(F)c3)n2)c1", 7),
    ("CC(=O)c1ccc(NC(=O)C2c3ccccc3C(=O)N(CC(C)C)C2c2cccs2)cc1 (centres undefined)", 51),
    ("COc1ccc(CN2CCC(CNCCc3c(Cl)cccc3Cl)CC2)cc1.O=C(O)C(F)(F)F", 69),
    ("Cl.O=c1cc(NCCCCNCc2ccc(Br)c(Br)c2)[nH]c2ccccc12", 14),
]
